Target: human CD33 R89A (human, UniProt P20138 18-364)
Sequence (P20138 18-364 R89A limits assumed): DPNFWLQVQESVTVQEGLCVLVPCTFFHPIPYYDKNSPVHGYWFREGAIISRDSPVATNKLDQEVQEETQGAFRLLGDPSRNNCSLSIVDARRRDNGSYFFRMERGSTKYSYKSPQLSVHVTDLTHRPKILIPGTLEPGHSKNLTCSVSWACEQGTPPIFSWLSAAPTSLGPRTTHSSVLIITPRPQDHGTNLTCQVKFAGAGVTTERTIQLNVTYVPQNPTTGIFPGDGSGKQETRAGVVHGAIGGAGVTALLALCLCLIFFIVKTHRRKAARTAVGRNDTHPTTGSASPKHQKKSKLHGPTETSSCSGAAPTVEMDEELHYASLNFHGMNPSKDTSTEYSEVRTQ
Assay: alanine scan, flow cytometry;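 note: HEK293-T cells transiently expressing single-residue alanine mutants of CD33 (alanine swapped to serine), antibody binding read by fluorescence in duplicate, background-subtracted, expressed relative to wild-type CD33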
ASSAY READOUT: Mean % WT Binding (% WT)
Write the value in % WT as a bare number.

Lab book: Mean % WT Binding of Refmab #4 (antibody, V domains shown, Full-length format is human IgG1 Fc silent (PG-LALA); The alanine scan used IgG or Fab) VH: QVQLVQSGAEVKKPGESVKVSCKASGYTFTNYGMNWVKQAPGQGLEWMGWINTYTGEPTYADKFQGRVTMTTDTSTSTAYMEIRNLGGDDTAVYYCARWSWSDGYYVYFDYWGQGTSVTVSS VL: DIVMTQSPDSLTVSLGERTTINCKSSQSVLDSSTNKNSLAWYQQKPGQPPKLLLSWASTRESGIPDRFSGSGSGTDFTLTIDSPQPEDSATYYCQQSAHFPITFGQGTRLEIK noted as 71.6

Measured Mean % WT Binding, Refmab #1 (antibody, V domains shown, Full-length format is human IgG1 (Absolute Antibody Ab00283-10.0); The alanine scan used IgG or Fab; also called hP67.6) VH: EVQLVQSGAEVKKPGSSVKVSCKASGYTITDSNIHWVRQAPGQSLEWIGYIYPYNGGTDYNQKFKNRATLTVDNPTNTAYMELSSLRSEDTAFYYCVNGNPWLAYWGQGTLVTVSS VL: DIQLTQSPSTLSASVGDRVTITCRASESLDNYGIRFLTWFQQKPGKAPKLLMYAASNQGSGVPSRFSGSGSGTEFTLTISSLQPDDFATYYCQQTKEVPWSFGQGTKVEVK : 77.6

Entry Refmab #2 (antibody, V domains shown, Full-length format is human IgG1 Fc silent (PG-LALA); The alanine scan used IgG or Fab) VH: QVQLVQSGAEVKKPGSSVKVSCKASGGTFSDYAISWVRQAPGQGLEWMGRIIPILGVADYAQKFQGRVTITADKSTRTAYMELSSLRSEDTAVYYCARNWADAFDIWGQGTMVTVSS VL: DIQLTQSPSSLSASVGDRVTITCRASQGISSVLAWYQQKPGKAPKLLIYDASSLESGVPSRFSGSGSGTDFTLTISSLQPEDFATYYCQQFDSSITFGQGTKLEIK — recorded Mean % WT Binding = 98.7

Looking up Refmab #3 (antibody, V domains shown, Full-length format is human IgG1 Fc silent (PG-LALA); The alanine scan used IgG or Fab) VH: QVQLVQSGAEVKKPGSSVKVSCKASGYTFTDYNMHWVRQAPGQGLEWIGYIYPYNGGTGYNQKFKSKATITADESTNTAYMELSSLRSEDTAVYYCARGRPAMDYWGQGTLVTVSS VL: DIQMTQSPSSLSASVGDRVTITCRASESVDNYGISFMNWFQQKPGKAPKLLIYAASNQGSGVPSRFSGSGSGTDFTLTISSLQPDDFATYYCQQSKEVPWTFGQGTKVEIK , I see its Mean % WT Binding listed as 126
